Listed here: compounds with reported pIC50 for cytochrome P450 2C9-isoenzyme (Homo sapiens, UniProt P11712).
One number for each entry, as −log10 of the molar value.

Consider the reported pIC50 for these compounds:
- COMPOUND: "Cc1cc(OCC2CCOCC2)cc(C)c1-c1ccc(F)c2c1CC[C@H]2Nc1ccc([C@H]2C[C@@H]2C(=O)O)cn1"
  pIC50: 4.48
- COMPOUND: "Cc1cc(-c2nnn(C)n2)cc(C)c1-c1cccc2c1CC[C@H]2Nc1ccc(C2C[C@@H]2C(=O)O)cn1 (mixture of isomers)"
  pIC50: 4.32
- COMPOUND: "COc1cc(F)c(-c2ccc(F)c3c2CC[C@H]3Nc2ccc([C@H]3C[C@@H]3C(=O)O)cn2)c(F)c1"
  pIC50: 4.55

Shifting focus to the compound that follows.
Query: pIC50; subject: `COc1c(F)c(F)c(-c2ccc(F)c3c2CC[C@H]3Nc2ccc([C@H]3C[C@@H]3C(=O)O)cn2)c(F)c1F`
4.40
